- Target desc: Lp-PLA2 (Homo sapiens, UniProt Q13093)
- Construct: Individual serum No. 16, individual serum No. 78; from tissue; host or cells: serum and plasma (individual sera, pooled sera, heparin and citrated pooled plasma)
- Sequence (Q13093 22-441): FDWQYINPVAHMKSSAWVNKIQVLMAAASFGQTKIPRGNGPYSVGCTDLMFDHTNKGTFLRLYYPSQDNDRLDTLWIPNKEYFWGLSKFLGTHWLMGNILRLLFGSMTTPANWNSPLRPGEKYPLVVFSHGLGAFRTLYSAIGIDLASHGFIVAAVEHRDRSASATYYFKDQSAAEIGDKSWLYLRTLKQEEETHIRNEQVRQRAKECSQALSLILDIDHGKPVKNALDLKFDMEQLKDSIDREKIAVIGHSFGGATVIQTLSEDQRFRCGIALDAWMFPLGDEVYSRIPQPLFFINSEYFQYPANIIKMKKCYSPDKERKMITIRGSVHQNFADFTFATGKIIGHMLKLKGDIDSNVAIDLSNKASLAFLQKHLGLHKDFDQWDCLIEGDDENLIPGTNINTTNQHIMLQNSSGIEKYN
- Procedure text: Lp-PLA2 activity measurement in serum/plasma with reagents of the invention (PAF substrate, lyso-PAF-PLD, choline oxidase, peroxidase colorimetry)
- Assay type: biochemical
- Particulars: Example 4; 50 mM buffer pH 7.5 in R1 and R2; sample Individual serum 16
- Experimental: Unless otherwise specified, in these examples the Method 1 described under 1) below is used for calculating Lp-PLA2 activity values. In these examples, (nmol/min/mL) is sometimes expressed as (U/L). This is calculated by the following formula based on the absorbance change per minute (ΔmAbs/min) as calculated from absorbance at the measuring points and the millimolar extinction coefficient (ε=36) of TODB at 546 nm. […]
Items are presented alongside their recorded Lp-PLA2 activity value.
Measurement name: Lp-PLA2 activity value

{"Molecule": "O=P(O)(O)O [Pi-K, potassium phosphate]", "Target desc": "Lp-PLA2 (Homo sapiens, UniProt Q13093)", "Result": "84.3 nmol/min/mL"}
{"Molecule": "O=S(=O)(O)CCN1CCN(CCO)CC1 [HEPES]", "Target desc": "Lp-PLA2 (Homo sapiens, UniProt Q13093)", "Result": "76.4 nmol/min/mL"}
{"Molecule": "O=S(=O)(O)CCCN1CCOCC1 [MOPS, 3-Morpholinopropanesulfonic acid]", "Target desc": "Lp-PLA2 (Homo sapiens, UniProt Q13093)", "Result": "81.3 nmol/min/mL"}
{"Molecule": "NC(CO)(CO)CO [Tris, 2-Amino-2-hydroxymethyl-1,3-propanediol]", "Target desc": "Lp-PLA2 (Homo sapiens, UniProt Q13093)", "Result": "99.1 nmol/min/mL"}
{"Molecule": "O=S(=O)(O)CCN1CCN(CCS(=O)(=O)O)CC1 [PIPES]", "Target desc": "Lp-PLA2 (Homo sapiens, UniProt Q13093)", "Result": "89.5 nmol/min/mL"}
{"Molecule": "O=S(=O)(O)CCNC(CO)(CO)CO [TES]", "Target desc": "Lp-PLA2 (Homo sapiens, UniProt Q13093)", "Result": "75.7 nmol/min/mL"}
